B1: TPPP (parent)
chain: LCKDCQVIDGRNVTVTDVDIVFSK

- Variants of: B1
- Protocol Notes: protein stability index of a GFP-peptide fusion (GPS, HEK-293T) (PSI 1-6); higher = more stable;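 further: lentivirally expressed fusions sorted by FACS into six bins by GFP to DsRed ratio, PSI derived from sequencing read proportions per bin multiplied by bin number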
- Applied Conditions: c terminus: a fixed tail appended
Entries and their protein stability index values follow.
Please reply with the value in numeric form only.

>  <Mutation Descriptor>
K24H

>  <Obs Value>
2.48

$$$$
>  <Mutation Descriptor>
D17H

>  <Obs Value>
2.48

$$$$
>  <Mutation Descriptor>
C5S

>  <Obs Value>
4.01

$$$$
>  <Mutation Descriptor>
R11V

>  <Obs Value>
2.05

$$$$
>  <Mutation Descriptor>
V15W

>  <Obs Value>
2.22

$$$$

Given the entry `K3T` , report its measured protein stability index.
2.83

Quick one: protein stability index of `D17V` ?
2.65

Look at this variant and give its reported protein stability index. `T14F`
1.91

Which protein stability index is reported for this variant? `G10T`
2.52

May I ask what protein stability index has been recorded for `Q6F` ?
1.74

# protein stability index lookup, item `N12C`
2.17

Requested read-out: protein stability index. Entry: `K3D`
3.3

Return reported protein stability index; argument: `N12S`
1.98

Field request: protein stability index | item: `K24E`
3.39
